B1: glmS ribozyme (parent)
chain: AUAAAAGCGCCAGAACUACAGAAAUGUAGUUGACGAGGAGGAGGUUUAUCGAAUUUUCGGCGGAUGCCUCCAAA

# Variants of: B1
# test.method.notes: self-cleavage kobs at 640 uM GlcN6P; higher = faster cleavage; RNA array
# measurement.context: with glucosamine-6-phosphate
This sample holds only a part of the variants without activity.
metric: self-cleavage kobs at 640 uM GlcN6P

These recorded examples may help you get a feel for the data.
variant.designation | reading
G59C | < 1e-05 s⁻¹
G13C G43U C58G | < 1e-05 s⁻¹
G9U U46G C58G | < 1e-05 s⁻¹
G40A A52C G59A C68U | < 1e-05 s⁻¹
C8U G59A | < 1e-05 s⁻¹
G40U C68A | < 1e-05 s⁻¹

Fill in reported self-cleavage kobs at 640 uM GlcN6P for this entry: G51U A52U U65G
< 1e-05 s⁻¹

Fill in reported self-cleavage kobs at 640 uM GlcN6P for this entry: G9U G29A G35U U46G
< 1e-05 s⁻¹

Fill in reported self-cleavage kobs at 640 uM GlcN6P for this entry: A6G C16A G44U U45A
< 1e-05 s⁻¹

Fill in reported self-cleavage kobs at 640 uM GlcN6P for this entry: U47G A48G G63A
< 1e-05 s⁻¹

Fill in reported self-cleavage kobs at 640 uM GlcN6P for this entry: A15U A33G A64G C67A C70A C71U
9.67e-05 s⁻¹

Fill in reported self-cleavage kobs at 640 uM GlcN6P for this entry: G7A A42C A52G U55A
< 1e-05 s⁻¹

Fill in reported self-cleavage kobs at 640 uM GlcN6P for this entry: G40U U45A
0.00081 s⁻¹

Fill in reported self-cleavage kobs at 640 uM GlcN6P for this entry: U30C U49A G60C
< 1e-05 s⁻¹

Fill in reported self-cleavage kobs at 640 uM GlcN6P for this entry: C10A U49A
< 1e-05 s⁻¹

Fill in reported self-cleavage kobs at 640 uM GlcN6P for this entry: G43A C67G C68G
0.000155 s⁻¹

Fill in reported self-cleavage kobs at 640 uM GlcN6P for this entry: U47G A52U
6.99e-05 s⁻¹

Fill in reported self-cleavage kobs at 640 uM GlcN6P for this entry: G13C G59U
< 1e-05 s⁻¹
